Tested on: SNB-19 CNS
assay-method-text: NCI tumour cell line growth inhibition, 48 h
Entries and their TGI values follow.

O=C(O)Cc1cc(=O)oc2cc(O)c(Cl)cc12    > 100 µM
CSc1nc(=S)[nH]c2n[nH]c(C)c12    > 100 µM
C/C(C=O)=C1\C(O)C[C@]1(C)C1CC(C)(C)CC1O (stereo partly specified)    > 100 µM
N#Cc1nc(-c2cccc(Br)c2)cc(-c2ccc(Nc3nc(N4CCCCC4)nc(N4CCCCC4)n3)cc2)c1N    > 100 µM

Field: TGI (SNB-19 CNS). Entry: CN1C(c2ccccc2)CC(=Nc2ccccc2)CC1c1ccccc1 (stereo unspecified) 27.8 µM

Then what about the compound Cc1ccc(S(=O)(=O)N/N=C2\C(=O)C3CC2C(Cl)C3Cl)cc1 (stereo unspecified) ? > 100 µM

Then what about the compound O=C(O)CC(Cc1ccc2c(c1)OCO2)C(=O)O (stereo unspecified) ? > 100 µM

Then what about the compound CC1CCCc2c(-c3ccc(Cl)cc3)nc(N)c(C#N)c21 (stereo unspecified) ? > 100 µM
